- experimentalTarget: methionine aminopeptidase-2 (MetAP2) (Homo sapiens, UniProt P50579)
- Construct: made in house; host or cells: insect cells, baculovirus system (secreted, purified from culture supernatant)
- Sequence (P50579 whole entry): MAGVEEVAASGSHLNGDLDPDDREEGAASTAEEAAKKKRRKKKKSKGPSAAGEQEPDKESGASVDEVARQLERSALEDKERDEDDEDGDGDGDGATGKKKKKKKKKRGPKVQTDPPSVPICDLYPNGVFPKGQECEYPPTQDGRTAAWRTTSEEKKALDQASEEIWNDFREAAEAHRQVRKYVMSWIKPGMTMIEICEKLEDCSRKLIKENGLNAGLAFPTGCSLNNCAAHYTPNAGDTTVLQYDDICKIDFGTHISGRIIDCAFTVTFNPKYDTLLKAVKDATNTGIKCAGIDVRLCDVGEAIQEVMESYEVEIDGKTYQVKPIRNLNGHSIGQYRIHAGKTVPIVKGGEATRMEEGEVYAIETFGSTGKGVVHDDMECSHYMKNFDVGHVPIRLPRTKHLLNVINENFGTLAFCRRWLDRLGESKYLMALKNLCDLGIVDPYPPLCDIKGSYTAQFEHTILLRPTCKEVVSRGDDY
- experimentalDetails: Inhibition of MetAP2 enzyme activity (96-well, Met-Ala-Ser substrate, L-amino acid oxidase/peroxidase/ortho-dianisidine, 450 nm)
- Type: biochemical
- experimentalContext: IC50, recombinant MetAP2 4 μg/mL, pH 7.4, Met-Ala-Ser substrate, 20 minutes
Where a name gives a salt, the structure may show the parent alone.
measurementType: pIC50
Remember, pIC50 is on a log scale: it is -log10 of the molar concentration.

>>> val("CC(C)(C)c1ccc(COC(=O)[C@@H](CO)NC(=O)C(O)[C@H](N)CC2CCCCC2)cc1 (stereo partly drawn)")
5.08
>>> val("CCC(=O)OC[C@H](C)NC(=O)C(O)[C@H](N)CC1CCCCC1 (stereo partly drawn) [Example 48, hydrochloride]")
5.82
>>> val("CCSCC[C@@H](N)C(O)C(=O)NCCC(=O)OCc1ccccc1 (stereo partly drawn) [Example 15, hydrochloride]")
6.14

Incoming: For C[C@H](COC(=O)c1ccccc1)NC(=O)C(O)[C@H](N)CC1CCCCC1 (stereo partly drawn) [Example 50, hydrochloride] , what is its reported pIC50?
Outgoing: 5.43

Incoming: Check CC(NC(=O)C(O)[C@H](N)CC1CCCCC1)C12CC3CC(CC(C3)C1)C2 (mixture of isomers) [Example 233, Hydrochloride] too.
Outgoing: 5.57

Incoming: Similarly, N[C@H](CC1CCCCC1)C(O)C(=O)Nc1cccc(C(F)(F)F)c1 (mixture of isomers) ?
Outgoing: 6.37

Incoming: Now this one: Cc1cccc(C)c1NC(=O)C(O)[C@H](N)CC1CCCCC1 (mixture of isomers) [Example 172, hydrochloride]
Outgoing: 5.30

Incoming: Could you do the same for C[C@H](NC(=O)C(O)[C@H](N)CC1CCCCC1)C(=O)NCc1nc2ccccc2[nH]1 (stereo partly drawn) [Example 67, hydrochloride] , please?
Outgoing: 4.89

Incoming: Query COc1ccc(C(F)(F)F)cc1NC(=O)C(O)[C@H](N)CC1CCCCC1 (mixture of isomers) [Example 220, Hydrochloride] next
Outgoing: 5.26

Incoming: How about N[C@H](CC1CCCCC1)C(O)C(=O)NCc1cccc2ccccc12 (stereo partly drawn) [Example 235, Hydrochloride] ?
Outgoing: 6.01

Incoming: Please answer likewise for N[C@H](CC1CCCCC1)C(O)C(=O)NCCCCNS(=O)(=O)c1ccc2ccccc2c1 (mixture of isomers) [Example 87, hydrochloride]
Outgoing: 5.57

Incoming: Next: CCOC(=O)CCNC(=O)C(O)[C@H](N)CC1CCCCC1 (stereo partly drawn)
Outgoing: 6.00

Incoming: Same lookup for C[C@H](NC(=O)C(O)[C@H](N)CC1CCCCC1)C(=O)OCc1ccc(CC(=O)OCC(=O)c2ccccc2)cc1 (stereo partly drawn) [Example 96, Hydrochloride] , please.
Outgoing: 5.54

Incoming: Another: CC(C)COCCCNC(=O)C(O)[C@H](N)CC1CCCCC1 (mixture of isomers) [Example 214, Hydrochloride]
Outgoing: 5.55

Incoming: For N[C@H](CC1CCCCC1)C(O)C(=O)NC1CCCCC1 (mixture of isomers) [Example 206, Hydrochloride] then?
Outgoing: 5.00

====

- experimentalTarget: methionine aminopeptidase-2 (MetAP2) (Homo sapiens, UniProt P50579)
- Construct: made in house; host or cells: insect cells, baculovirus system (secreted, purified from culture supernatant)
- experimentalDetails: Inhibition of MetAP2 enzyme activity (96-well, Met-Ala-Ser substrate, L-amino acid oxidase/peroxidase/ortho-dianisidine, 450 nm)
- Format: biochemical
- experimentalContext: IC50, recombinant MetAP2 4 μg/mL, pH 7.4, Met-Ala-Ser substrate, 20 minutes
Where a name gives a salt, the structure may show the parent alone.
measurementType: log10(IC50) (log10 of the value in nM)
Log10 applied to IC50; unit prior to transform: nM.

Some solved entries appear below for comparison.
>>> val("N[C@H](CC1CCCCC1)C(O)C(=O)Nc1ccccc1Oc1ccccc1 (mixture of isomers) [Example 183, hydrochloride]")
3.94
>>> val("COc1ccc(C(C)(C)C)cc1NC(=O)C(O)[C@H](N)CC1CCCCC1 (mixture of isomers) [Example 182, hydrochloride]")
3.90
>>> val("CSCC[C@@H](N)C(O)C(=O)NCCc1ccc(Oc2ccccc2)cc1 (mixture of isomers) [Example 11, hydrochloride]")
3.41
>>> val("CC(C)(C)OC(=O)CNC(=O)C(O)[C@H](N)CC1CCCCC1 (mixture of isomers) [Example 126, hydrochloride]")
4.11
>>> val("N[C@H](CC1CCCCC1)C(O)C(=O)NCCCCc1ccccc1 (stereo partly shown) [Example 30, hydrochloride]")
3.04

Incoming: Lab request: please report log10(IC50) under test system methionine aminopeptidase-2 (MetAP2) (Homo sapiens, UniProt P50579) for COc1ccc([N+](=O)[O-])cc1NC(=O)C(O)[C@H](N)CC1CCCCC1 (mixture of isomers) [Example 160, hydrochloride]
Outgoing: 2.95

====

- experimentalTarget: methionine aminopeptidase-2 (MetAP2) (Homo sapiens, UniProt P50579)
- Construct: made in house; host or cells: insect cells, baculovirus system (secreted, purified from culture supernatant)
- experimentalDetails: Inhibition of MetAP2 enzyme activity (96-well, Met-Ala-Ser substrate, L-amino acid oxidase/peroxidase/ortho-dianisidine, 450 nm)
- Format: biochemical
- experimentalContext: IC50, recombinant MetAP2 4 μg/mL, pH 7.4, Met-Ala-Ser substrate, 20 minutes
Counter-ions that a name gives are not always drawn.
measurementType: pIC50
pIC50 here is simply -log10 of the concentration when that concentration is written in mol/L.

Some entries whose results are on file:
>>> val("N[C@H](CC1CCCCC1)C(O)C(=O)NCCCCNC(=O)OCc1ccccc1 (stereo partly shown) [Example 77, hydrochloride]")
5.48
>>> val("NCCNC(=O)C(O)[C@H](N)CC1CCCCC1 (stereo partly shown) [Example 83, dihydrochloride]")
4.59
>>> val("CSCC[C@@H](N)C(O)C(=O)NCCCCc1ccccc1 (mixture of isomers) [Example 7, hydrochloride]")
5.70
>>> val("N[C@H](CC1CCCCC1)C(O)C(=O)NCc1nc2ccccc2[nH]1 (stereo partly shown) [Example 60, hydrochloride]")
4.74
>>> val("CCOC(=O)[C@H](C)NC(=O)C(O)[C@H](N)Cc1ccccc1 (stereo partly shown) [Example 26, hydrochloride]")
5.33
>>> val("N[C@H](CC1CCCCC1)C(O)C(=O)N[C@@H](CO)C(=O)OCc1ccc([N+](=O)[O-])cc1 (stereo partly shown) [Example 138]")
5.80

Shifting focus to the molecule that follows.
Incoming: Returns the measured pIC50 for the input molecule. Input: COc1cc(Nc2ccccc2)ccc1NC(=O)C(O)[C@H](N)CC1CCCCC1 (mixture of isomers) [Example 174, hydrochloride]
Outgoing: 5.82

====

# Lookup of reported pIC50 keyed by entry
- experimentalTarget: methionine aminopeptidase-2 (MetAP2) (Homo sapiens, UniProt P50579)
- Construct: made in house; host or cells: insect cells, baculovirus system (secreted, purified from culture supernatant)
- experimentalDetails: Inhibition of MetAP2 enzyme activity (96-well, Met-Ala-Ser substrate, L-amino acid oxidase/peroxidase/ortho-dianisidine, 450 nm)
- Assay type: biochemical
- experimentalContext: IC50, recombinant MetAP2 4 μg/mL, pH 7.4, Met-Ala-Ser substrate, 20 minutes
Where a name gives a salt, the structure may show the parent alone.
The read-out pIC50 is expressed as -log10 of concentration in moles per litre.

In the examples that follow, each entry is paired with its recorded pIC50.
>>> val("Cc1ccc([N+](=O)[O-])cc1NC(=O)C(O)[C@H](N)CC1CCCCC1 (mixture of isomers) [Example 184, hydrochloride]")
6.37
>>> val("CCSCC[C@@H](NCC(=O)OC)C(O)C(=O)NCCCCc1ccccc1 (some centres unmarked) [Example 44, hydrochloride]")
4.89
>>> val("N[C@H](CC1CCCCC1)C(O)C(=O)NCCCc1ccccc1 (mixture of isomers) [Example 109, Hydrochloride]")
5.77
>>> val("N[C@H](CC1CCCCC1)C(O)C(=O)Nc1ccc(N2CCOCC2)cc1 (mixture of isomers) [Example 215, Hydrochloride]")
5.89

Incoming: I would be grateful if you could share the reported pIC50 for N[C@H](CC1CCCCC1)C(O)C(=O)NCc1ccc(Cl)cc1 (mixture of isomers) [Example 193, hydrochloride] .
Outgoing: 5.60

Incoming: Try this molecule next: CSCC[C@@H](N)C(O)C(=O)NCCc1ccncc1 (mixture of isomers) [Example 19]
Outgoing: 5.80

Incoming: Next molecule: N[C@H](CC1CCCCC1)C(O)C(=O)Nc1ccc(Cl)c(Cl)c1 (mixture of isomers) [Example 153]
Outgoing: 6.43

Incoming: What would you report for N[C@H](CC1CCCCC1)C(O)C(=O)NCCCCNS(=O)(=O)c1cccc(C(F)(F)F)c1 (mixture of isomers) [Example 84, hydrochloride] ?
Outgoing: 5.48

Incoming: Repeat with C[C@H](NC(=O)C(O)[C@H](N)CC1CCCCC1)C(=O)OCc1ccccc1 (some centres unmarked) [Example 53, hydrochloride]
Outgoing: 5.74

Incoming: Query N[C@H](CC1CCCCC1)C(O)C(=O)NCCCN1CCCC1=O (mixture of isomers) [Example 102, Hydrochloride] next
Outgoing: 4.89

Incoming: Please do the same for Cc1cccc(CNC(=O)C(O)[C@H](N)CC2CCCCC2)c1 (mixture of isomers) [Example 191, hydrochloride] as well.
Outgoing: 5.60

Incoming: Let us now turn to C[C@H](NC(=O)C(O)[C@H](N)CC1CCCCC1)C(=O)OCc1ccc(C(F)(F)F)cc1 (some centres unmarked) [Example 95, Hydrochloride]
Outgoing: 5.28

Incoming: C[C@H](NC(=O)C(O)[C@H](N)Cc1ccccc1)C(=O)OCc1ccccc1 (some centres unmarked) [Example 105, Hydrochloride] ?
Outgoing: 4.72

Incoming: Entry to check: N[C@H](CC1CCCCC1)C(O)C(=O)NCCc1ccc(S(N)(=O)=O)cc1 (some centres unmarked) [Example 88, hydrochloride]
Outgoing: 5.66

All values here come from patent US6242494A.
